These entries and their values trace back to ChEMBL document CHEMBL4699588.

- Species: Homo sapiens
- ASSAY_NAME: Inhibition of alpha-chymotrypsin (unknown origin) at 11.1 to 100 uM
- DETAILS: dose 11.1-100 µM
Active and inactive are the calls of the source. No cut-off for these calls is given here.
Returns: one label drawn from active, inactive

For orientation, consider the following solved cases.
- LINE_NOTATION: "C[C@H](NC(=O)[C@H](CCC(=O)NC(C)(C)C)NC(=O)CCc1ccccc1)C(=O)NCc1ccc(F)c2ccccc12"
  CLASSIFICATION: "inactive"
- LINE_NOTATION: "COC[C@H](NC(=O)[C@H](CC(=O)NC(C)(C)C)NS(=O)(=O)c1ccc(C)cc1)C(=O)NCc1ccc(F)c2ccccc12"
  CLASSIFICATION: "inactive"
- LINE_NOTATION: "COC[C@H](NC(=O)[C@H](CCC(=O)NC(C)(C)C)NS(=O)(=O)c1ccc(C)cc1)C(=O)NCc1ccc(F)c2ccccc12"
  CLASSIFICATION: "inactive"
- LINE_NOTATION: "Cc1ccc(S(=O)(=O)N[C@@H](CCC(=O)NC(C)(C)C)C(=O)N[C@@H](C)C(=O)NCc2ccc(F)c3ccccc23)cc1"
  CLASSIFICATION: "inactive"

--- query ---
Tell me the assay call for "C[C@H](NC(=O)[C@H](CC(=O)NC(C)(C)C)NC(=O)C(=O)c1c[nH]c2ccccc12)C(=O)NCc1cccc2ccccc12" please. active

###

# Ratio IC50 values compiled below
- Species: Homo sapiens
- ASSAY_NAME: Selectivity index, ratio of IC50 for inhibition of human constitutive 20S proteasome beta 5 chymotrypsin-like activity to IC50 for inhibition of human 20S immunoproteasome beta 5 chymotrypsin-like activity

Example cases with answers are listed next.
- LINE_NOTATION: "NC(=O)C[C@H](NC(=O)CCc1ccccc1)C(=O)N[C@@H](Cc1ccc(F)cc1)C(=O)NCc1cccc2ccccc12"
  Ratio IC50: "> 2.8"
- LINE_NOTATION: "COC[C@H](NC(=O)[C@H](CC(=O)N(C)C)NC(=O)CCc1ccccc1)C(=O)NCc1cccc2ccccc12"
  Ratio IC50: "> 9"

What value of Ratio IC50 has been reported for the following compound? "COC[C@H](NC(=O)CCc1ccccc1)C(=O)N[C@@H](C)C(=O)NCc1cccc2ccccc12" > 5

What value of Ratio IC50 has been reported for the following compound? "COC[C@H](NC(=O)[C@H](CC(=O)N1CCC1)NC(=O)CCc1ccccc1)C(=O)NCc1cccc2ccccc12" > 7

###

- ASSAYED_SYSTEM: Proteasome Macropain subunit MB1 (Homo sapiens, UniProt P28074)
- Sequence (P28074 whole entry): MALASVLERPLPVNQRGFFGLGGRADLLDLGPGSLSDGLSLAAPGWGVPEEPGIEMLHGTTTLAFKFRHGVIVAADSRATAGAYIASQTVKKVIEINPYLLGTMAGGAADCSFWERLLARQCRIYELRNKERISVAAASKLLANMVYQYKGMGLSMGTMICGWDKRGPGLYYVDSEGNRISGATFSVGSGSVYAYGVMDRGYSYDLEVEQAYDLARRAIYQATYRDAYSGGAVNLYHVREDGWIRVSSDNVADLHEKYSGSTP
- ASSAY_NAME: Inhibition of human constitutive 20S proteasome beta 5 chymotrypsin-like activity
pIC50: −log10 of the molar value.
READOUT: pIC50

- LINE_NOTATION: "COC[C@H](NC(=O)CCc1ccccc1)C(=O)N[C@@H](C)C(=O)NCc1cccc2ccccc12"
  ASSAYED_SYSTEM: "Proteasome Macropain subunit MB1 (Homo sapiens, UniProt P28074)"
  pIC50: "< 4.00"

What value of pIC50 has been reported for the following molecule? "COC[C@H](NC(=O)[C@H](CC(=O)N(C)C)NC(=O)CCc1ccccc1)C(=O)NCc1cccc2ccccc12" < 4.00

What value of pIC50 has been reported for the following molecule? "NC(=O)C[C@H](NC(=O)CCc1ccccc1)C(=O)N[C@@H](Cc1ccc(F)cc1)C(=O)NCc1cccc2ccccc12" < 4.00
